All values here come from PubChem BioAssay (NCI).

- Tested on: SF-268 CNS
- assay.method.text: NCI tumour cell line growth inhibition, 48 h
measure: TGI

Below, each entry is followed by its recorded TGI result.
INSERT INTO results (molecule, recorded_value) VALUES
  ('CC(C)(C)OC(=O)N1C(OP(=O)(Oc2ccccc2)Oc2ccccc2)=COc2cccnc21', '> 100 µM'),
  ('COP1(=O)CC2C(Cl)(Cl)C2(C)C1 (configuration not stated)', '> 100 µM'),
  ('CCN(CC)CCCCC1CCN(CC(=O)N2CC(C)C(=O)Nc3ccccc32)CC1 (configuration not stated)', '> 100 µM');

Entry OC1OC(c2ccco2)C(F)(F)C(F)(F)C1(F)F (configuration not stated) : reported TGI = ?
> 100 µM

Sample CCOC(=O)C(C(=O)Cc1ccccc1)c1ccccc1 (configuration not stated) — what was its TGI?
> 100 µM

Can you look up the measured TGI of Cc1nn(C(=O)c2ccccc2O)c2c1C(c1ccccc1)SC(N)=N2 (configuration not stated) for me?
> 10 µM

For "NC(=O)COc1ccccc1" , what is its reported TGI?
> 100 µM

Any idea what its TGI is? The molecule is "COc1cccc(-c2nc3sccn3c2-c2ccnc(NCCNC(=O)Nc3cccc(C(F)(F)F)c3)n2)c1"
43.4 µM

====

- System: SF-268 CNS
- assay.method.text: NCI tumour cell line growth inhibition, 48 h
Listed next: entries and their corresponding TGI.

INSERT INTO assay_data (compound, measure, recorded_value) VALUES
  ('CSc1nncc(-c2cc3c(c(SC)n2)CCC3)n1', 'TGI', '> 100 µM'),
  ('COC1/C=C/C(C)C(C(C)C(OC)C(C)CCC(=O)C(C)C(CCC(=O)O)OC)OC(=O)/C=C/C=C(\C)CC(OC)CC2=CC(=O)O[C@@H](C(C)C(OC)CC(OC)/C=C/C(C)C(OC)C1)[C@H]2O (some centres undefined)', 'TGI', '> 2.47 µM'),
  ('CC(=O)O[C@H]1C(N(C)C(=O)c2ccccc2)CC[C@]2(C)C3CC[C@@]4(C)C(CC(O)[C@@H]4C(C)N(C)C)[C@@H]3CCC12 (some centres undefined)', 'TGI', '> 100 µM');

Which TGI is listed for O=C1c2ccccc2CC12Cc1ccc3c(c1C2)CCC3 (centres undefined) ?
> 100 µM
